Tested on: TGFBR2 mRNA
Assay: remaining TGFBR2 mRNA relative to control siRNA (off-target knock-down) (fraction of control); quantification method: branched DNA; higher = less knock-down
Recorded endpoint: remaining TGFBR2 mRNA

| Sequence content | Recorded endpoint | Quantitative readout |
| --- | --- | --- |
| UACAUGAUGUAAACGAUAATT | remaining TGFBR2 mRNA | 0.54 |
| UUUCCUGGUUGGUGAGCAGTT | remaining TGFBR2 mRNA | 0.36 |
| UCUGCAACGUAGAGGUUAUTT | remaining TGFBR2 mRNA | 0.79 |
| AGUUCUCUCAAUUGCUUACTT | remaining TGFBR2 mRNA | 0.54 |
| UCCUUGGUCUCAUCUGCCUTT | remaining TGFBR2 mRNA | 0.43 |
| UCAACAAGCUAAGUCUGCCTT | remaining TGFBR2 mRNA | 0.72 |
| UGUGCUUGGUCACGGACACTT | remaining TGFBR2 mRNA | 0.27 |
| UCCUUGGUGUAUUCUAACATT | remaining TGFBR2 mRNA | 0.42 |
| AUAAGCAGUAAGUAGCUGGTT | remaining TGFBR2 mRNA | 0.99 |
| GAGCAGCUCUCGUAGCCAUTT | remaining TGFBR2 mRNA | 0.33 |
| AAUCAGGGCGGAGUAGGUGTT | remaining TGFBR2 mRNA | 0.91 |
| UUAUCCCAUAUGAGCUCAGTT | remaining TGFBR2 mRNA | 0.5 |
| UCAAGUGCAUCUCCACAGCTT | remaining TGFBR2 mRNA | 0.23 |
| CAAACAGCGGUUGGAAUAATT | remaining TGFBR2 mRNA | 0.33 |
| CCCAAGUCAUCCUGGUUGUTT | remaining TGFBR2 mRNA | 0.67 |
| UUCCUUGGCUGUGAUGCUCTT | remaining TGFBR2 mRNA | 0.11 |
| UCAAGUGCAGUAGUAGAUGTT | remaining TGFBR2 mRNA | 0.51 |
| CUACCAUCAAUCCGGUAGGTT | remaining TGFBR2 mRNA | 0.84 |
| GAUGGACUGCAUACAUUGGTT | remaining TGFBR2 mRNA | 0.87 |
| UAGCAUUCAUUUUCCGUGGTT | remaining TGFBR2 mRNA | 0.27 |
| UAACGUGUGUAUGUCUGGCTT | remaining TGFBR2 mRNA | 0.69 |
| UGCUUAUCUCAUCUGAAGCTT | remaining TGFBR2 mRNA | 0.28 |
| UCUCGGAGGCAGUUCCAGCTT | remaining TGFBR2 mRNA | 0.82 |
| GAGUGACCUGCUCCUCUAATT | remaining TGFBR2 mRNA | 0.61 |
| UUCCUUGGUACGGCCGCUCTT | remaining TGFBR2 mRNA | 0.13 |
| AGCCCAUGCCCUUCACAAUTT | remaining TGFBR2 mRNA | 0.89 |
| UGCAUUGGCUCCCACUUCATT | remaining TGFBR2 mRNA | 0.33 |
| AUAUUCCGUAAAACGAACATT | remaining TGFBR2 mRNA | 0.38 |
| AUGGCUAUUCCUGACCACGTT | remaining TGFBR2 mRNA | 0.26 |
| UUUCCUGGCCUCCUGGAACTT | remaining TGFBR2 mRNA | 0.29 |
| UCUUGGCUUUGACACCGAGTT | remaining TGFBR2 mRNA | 0.39 |
| UUUGGAGCUCCCCAAACGCTT | remaining TGFBR2 mRNA | 0.26 |
| CACUUCCCGGAUACUCAGATT | remaining TGFBR2 mRNA | 0.33 |
| UUCUUCUGGUCCAUACUCATT | remaining TGFBR2 mRNA | 0.66 |
| AUGGUGUUUGCAAGCUCCUTT | remaining TGFBR2 mRNA | 0.36 |
| UGAUGUUGAUCUGGGGCACTT | remaining TGFBR2 mRNA | 0.54 |
| AUGACACCUCAGUCCUUCCTT | remaining TGFBR2 mRNA | 0.88 |
| UCCUGGAAGUUUGACGUCCTT | remaining TGFBR2 mRNA | 1.41 |
| AUAAGCAGUGAGAACGAGCTT | remaining TGFBR2 mRNA | 1.26 |
| GUUCAGCAGCAGCAGACCATT | remaining TGFBR2 mRNA | 0.79 |
| AUUUCGCACACGUCCGUGUTT | remaining TGFBR2 mRNA | 0.61 |
| AGGUCAUCACGUACUUUUUTT | remaining TGFBR2 mRNA | 1.09 |
| UGGUGAAGAGGCACUUAACTT | remaining TGFBR2 mRNA | 1.06 |
| UUCCCUGCUACUGUUGCUUTT | remaining TGFBR2 mRNA | 0.72 |
| UGAUAGCACCAACACAAAGTT | remaining TGFBR2 mRNA | 0.74 |
| ACUUUGGUUUCGGUGCAGCTT | remaining TGFBR2 mRNA | 0.23 |
| UGUCCUGGUCACACUUCCATT | remaining TGFBR2 mRNA | 0.5 |
| CAGAGCGAUCACCUUGAACTT | remaining TGFBR2 mRNA | 0.17 |
| UCCAAGUCGAGAAGAGACCTT | remaining TGFBR2 mRNA | 0.46 |
| AAUCCUCUGGUGACUGCUGTT | remaining TGFBR2 mRNA | 0.54 |
| UCCAGCUGUUUCGUUCCUCTT | remaining TGFBR2 mRNA | 0.36 |
| UGAAGACAGUCCUAUGGACTT | remaining TGFBR2 mRNA | 0.97 |
| UGCAGUGAUAAAGGCUACATT | remaining TGFBR2 mRNA | 0.67 |

###

Entries and their measured remaining TGFBR1 mRNA follow.
System: TGFBR1 mRNA
Test: remaining TGFBR1 mRNA relative to control siRNA (off-target knock-down) (fraction of control); quantification method: branched DNA; higher = less knock-down

| Sequence content | Target entity | remaining TGFBR1 mRNA |
| --- | --- | --- |
| UUUUCCUGGCCUCUGAUCCTT | TGFBR1 mRNA | 0.99 |
| AUGUAUAGGUAGUGCACAGTT | TGFBR1 mRNA | 0.98 |
| UUUCCUGGCCUCCUGGAACTT | TGFBR1 mRNA | 0.94 |
| UUCUUUGGAGAGUCCGGUCTT | TGFBR1 mRNA | 0.88 |
| UAUGCUCCUCUUCCUGUUCTT | TGFBR1 mRNA | 1.43 |
| GGGUUUUCCCAGUCACGACTT | TGFBR1 mRNA | 0.91 |
| UUAUAAGCCAAAGUGCGUCTT | TGFBR1 mRNA | 0.6 |
| UGAAGACAGUCCUAUGGACTT | TGFBR1 mRNA | 0.42 |
| AUGUUCCGCCUGCUUUUGCTT | TGFBR1 mRNA | 1.19 |
| AGAGAUUCCUUUUCUUCACTT | TGFBR1 mRNA | 0.24 |
| UAGCAUUCAUUUUCCGUGGTT | TGFBR1 mRNA | 0.72 |
| CCACUGGUGUGGGCCAUAATT | TGFBR1 mRNA | 1.38 |
| GCUGAAUGAGGGUAGUCUUTT | TGFBR1 mRNA | 0.28 |
| AUGACACCUCAGUCCUUCCTT | TGFBR1 mRNA | 0.38 |
| AAUUGGCUCCACAGUCUUUTT | TGFBR1 mRNA | 1.23 |
| UCUGGUCUCAGCCAUUGAATT | TGFBR1 mRNA | 0.26 |
| ACUUUGGUUUCGGUGCAGCTT | TGFBR1 mRNA | 0.63 |
| UCAUAGCUCUGGCAUCGUCTT | TGFBR1 mRNA | 1.11 |
| UUCCCUGCUACUGUUGCUUTT | TGFBR1 mRNA | 0.84 |
| GAGCAGCUCUCGUAGCCAUTT | TGFBR1 mRNA | 1.01 |
| UGUACUUCUCCUUGGAGAATT | TGFBR1 mRNA | 0.8 |
| AAUGGGAGACAAGCCAAUUTT | TGFBR1 mRNA | 0.77 |
| UUUGUUGUCCAGUGGUCCGTT | TGFBR1 mRNA | 1.13 |
| CAGUCUCAUCGUCCUCAUCTT | TGFBR1 mRNA | 1.07 |
| UAUCUCAUGAAAGCGCUUCTT | TGFBR1 mRNA | 1.12 |
| UCCAGCUGCAUUCCUCGCUTT | TGFBR1 mRNA | 0.75 |
| AGCCCAUGCCCUUCACAAUTT | TGFBR1 mRNA | 0.71 |
| UCCUGGAAGUUUGACGUCCTT | TGFBR1 mRNA | 0.88 |
| UAUAACUCUCAGGGGAUAUTT | TGFBR1 mRNA | 1.07 |
| AAGUGCAUUCCGUGCAAUCTT | TGFBR1 mRNA | 0.92 |
| UCAAGGUGGACAAAGCUCUTT | TGFBR1 mRNA | 0.74 |
| UGCAUUGGCUCCCACUUCATT | TGFBR1 mRNA | 0.26 |
| GGAAGUGUCAUGGAAGGUGTT | TGFBR1 mRNA | 0.7 |
| AGCUUGUGCCAAGUGCCAUTT | TGFBR1 mRNA | 0.92 |
| AGCCUCUGGAGAAUCUCCUTT | TGFBR1 mRNA | 1.04 |
| AUUGAAGCCACCAUUCUCCTT | TGFBR1 mRNA | 0.23 |
| AUGUCUCAAAGUCAAAAAATT | TGFBR1 mRNA | 0.92 |
| CUCCUUGGCACACUUCUCATT | TGFBR1 mRNA | 0.93 |
| AUGGUGAGAAGACACAGGCTT | TGFBR1 mRNA | 1.33 |
| UCCUUGGUCUCAUCUGCCUTT | TGFBR1 mRNA | 1.05 |
| AUGGAGUAGCAUCACUCUCTT | TGFBR1 mRNA | 1.1 |
| ACCAUGUCGGCCUUUUCAATT | TGFBR1 mRNA | 0.35 |
| AGCUUAUCCAACAGACGUCTT | TGFBR1 mRNA | 1.07 |
| AGCACUGCGAGUACUGUGUTT | TGFBR1 mRNA | 0.33 |
| AGCGGUGCGUUUCAGGCUGTT | TGFBR1 mRNA | 1.06 |
| AGGCUAUAAGCUCGCCUACTT | TGFBR1 mRNA | 0.84 |
| UUUCAGCAAUACAAGCCCGTT | TGFBR1 mRNA | 0.39 |
| AGAUCCAGGAUUACGCCAGTT | TGFBR1 mRNA | 0.88 |
| UCCCGUACUGGUUCUGGGGTT | TGFBR1 mRNA | 1.1 |
| UACAUGAUGUAAACGAUAATT | TGFBR1 mRNA | 0.44 |
| UUUGGCUUCUUCUAGUGACTT | TGFBR1 mRNA | 0.91 |
| UCAUAAGCAUGCUCCACACTT | TGFBR1 mRNA | 0.14 |
| AGCCAGAAACUCAGACACCTT | TGFBR1 mRNA | 0.99 |
| UGAAUAACCCUCUGGACAGTT | TGFBR1 mRNA | 0.45 |
